Tested on: HOP-62
assay-details: NCI tumour cell line growth inhibition, 48 h
Counter-ions that a name gives are not always drawn. Active and inactive are the calls of the source. Rule as the data show it: active = GI50 up to about 1.1 µM and inactive = higher.
Please answer using one outcome listed in 1 (yes) = active, 0 (no) = inactive

A selection of reference data follows.
- compound: "CCCCCCCCCCCCOCC(COP(=O)(O)OCCN=[N+]=[N-])OC(=O)CCCCCCCCCCC (stereo unspecified)"
  assigned-category: "0 (no)"
- compound: "C[Si](C)(OCCS(=O)(=O)O)C1(Cc2cccc3ccccc23)S(=O)(=O)OCCOS1(=O)=O"
  assigned-category: "0 (no)"
- compound: "N=C(N)C(/N=N\\c1ccccc1)C(N)=O (stereo unspecified)"
  assigned-category: "0 (no)"
- compound: "O=C(N/C(=C\\c1cccc([N+](=O)[O-])c1)c1nc2c(O)nc(S)nc2[nH]1)c1ccccc1"
  assigned-category: "0 (no)"
- compound: "O=C1C(=O)N(c2cc(Cl)ccc2Cl)C(=O)C(=O)C1c1nc2ccccc2s1"
  assigned-category: "0 (no)"
- compound: "COc1cc2c[n+](C)c3c4cc(OC)c(OC(C)C)cc4ccc3c2cc1OC"
  assigned-category: "0 (no)"
- compound: "O=C(NC1CC1)c1c(O)[nH]c(=S)[nH]c1=O"
  assigned-category: "0 (no)"
- compound: "CNC(C)Cc1ccccc1OC (stereo unspecified) [METHOXYPHENAMINE HYDROCHLORIDE]"
  assigned-category: "0 (no)"
- compound: "Cc1ccc2c(n1)C(=O)C=CC2=O"
  assigned-category: "0 (no)"
- compound: "CC(=O)O[C@H]1C(=O)[C@@]2(C)[C@H]([C@H](OC(=O)c3ccccc3)[C@]3(O)C[C@H](OC(=O)[C@H](O)[C@@H](NC(=O)c4ccccc4)c4ccccc4C)C(C)=C1C3(C)C)[C@]1(OC(C)=O)CO[C@@H]1C[C@@H]2O"
  assigned-category: "1 (yes)"

Lookup: // return assay outcome for COC(=O)CC1NC(=O)[C@@H]1C(C)O (stereo partly specified)
Found: 0 (no)

Lookup: Check `C/C(=N\c1ccc(Cl)cc1)c1ccncc1` too.
Found: 0 (no)

---

// reported GI50 for each item listed
Tested on: T47D
assay-details: NCI tumour cell line growth inhibition, 48 h
The source made the active and inactive calls. Rule as the data show it: active = GI50 up to about 1.1 µM and inactive = higher.

Guide cases for GI50, answers given:
- compound: "O=c1[nH]nc(Nc2ccc(Cl)cc2)c2nnn(C3CCCCC3)c12"
  GI50: "> 100 µM (inactive)"
- compound: "[O-][S+]1CC[S+]([O-])CC[S+]([O-])CC1 (centres undefined)"
  GI50: "> 100 µM (inactive)"
- compound: "Cc1ccc(CC2(OCCN(C)C)CCC(C(C)(C)C)CC2)cc1 (centres undefined)"
  GI50: "2.68 µM (inactive)"

Alright, here's another compound for you.
Lookup: Fill in: GI50 of `COc1cc2c(c(O)c1OC)C(=O)[C@@H]1CCC(=O)N1C2` is ___
Found: > 100 µM (inactive)

---

System: ACHN
assay-details: NCI tumour cell line growth inhibition, 48 h
Calls of active or inactive are those of the source. Cut-off read from the data, not from the text of the source: active = GI50 up to about 1.1 µM and inactive = higher.
Please answer using one outcome listed in t for active, f for inactive

A selection of reference data follows.
- molecule: "[O-][S+](Cc1ccccc1)c1ccccc1Cn1cccc1 (centres undefined)"
  assigned-category: "f"
- molecule: "COC1/C=C/C(C)C(OC)CC(O)/C=C/C(C)C(C(C)C(OC)C(C)CCC(=O)C(C)C(C/C=C/N(C)C=O)OC)OC(=O)/C=C/C=C(\\C)CC(OC)CC2=CC(=O)O[C@@H](C(C)C(OC)C1)[C@H]2O (some centres undefined)"
  assigned-category: "t"

Lookup: // return assay outcome for `COc1ccc(OC)c2cc(C3(C)SCCCS3)ccc12`
Found: f

Lookup: Check `CC(=O)N[C@@H](Cc1ccc(O)cn1)C(=O)NCc1ccc(Cl)cc1` too.
Found: f

Lookup: Check `COc1cc(/C=C/C(=O)N[C@@H]2C(=O)N3[C@@H]2SC(C)(C)[C@@H]3C(=O)O)ccc1O` too.
Found: f

---

Tested on: OVCAR-8
assay-details: NCI tumour cell line growth inhibition, 48 h
Active and inactive are the calls of the source. Rule as the data show it: active = GI50 up to about 1.1 µM and inactive = higher.
measurement-kind: GI50

- compound: "Cc1ccc(S(=O)(=O)NC(=O)NC(Cc2ccc(O)cc2)C(=O)O)cc1 (stereo not given)"
  measured-target: "OVCAR-8"
  GI50: "> 100 µM (inactive)"
- compound: "CCCCn1c(CSc2ccc(Cl)cc2)c(C(=O)OCC)c2cc(OC)c(Br)cc21"
  measured-target: "OVCAR-8"
  GI50: "> 100 µM (inactive)"
- compound: "C=CCN(c1cc(OCc2ccccc2)c2c(c(C)cn2S(=O)(=O)c2ccc([N+](=O)[O-])cc2)c1[N+](=O)[O-])S(C)(=O)=O"
  measured-target: "OVCAR-8"
  GI50: "> 100 µM (inactive)"
- compound: "N=C(N)C(/N=N\\c1ccccc1)C(N)=O (stereo not given)"
  measured-target: "OVCAR-8"
  GI50: "> 100 µM (inactive)"
- compound: "CN/C(N)=N/N=C1/C(=O)Nc2ccccc21"
  measured-target: "OVCAR-8"
  GI50: "> 100 µM (inactive)"

Lookup: Fill in: GI50 of Clc1cccc(N2CCN(CCN3CCc4c([nH]c5ccccc45)C3c3cccnc3)CC2)c1 (stereo not given) is ___
Found: > 61.9 µM (inactive)

Lookup: Check `Cc1cc2nc(N3C(=O)/C(=C/c4ccccc4S)N=C3c3ccccc3)sc2cc1C` too.
Found: 46.5 µM (inactive)

Lookup: Check `OC(c1ccc(Cl)cc1)(c1ccc(Cl)cc1)c1cncnc1` too.
Found: 21.4 µM (inactive)

Lookup: Check CCC(O)(c1ccc(OC)cc1)C(c1ccc(OCc2ccccc2)cc1)c1ccc(OCc2ccccc2)cc1 (stereo not given) too.
Found: > 100 µM (inactive)

Lookup: Check `COc1cc2c(c(O)c1OC)C(=O)[C@@H]1CCC(=O)N1C2` too.
Found: > 100 µM (inactive)

---

Test system: SNB-19
assay-details: NCI tumour cell line growth inhibition, 48 h
Structures can show the parent of a compound that is named as a salt. Calls of active or inactive are those of the source. Cut-off read from the data, not from the text of the source: active = GI50 up to about 1.1 µM and inactive = higher.
Please answer using one outcome listed in T = active, F = inactive

A selection of reference data follows.
- compound: "CC(O)(Cc1ccccc1C#N)Cc1ccccc1C#N"
  measured-target: "SNB-19"
  assigned-category: "F"
- compound: "CSc1nc(SC)c2c(CN=[N+]=[N-])c(Br)n(Cc3ccccc3)c2n1"
  measured-target: "SNB-19"
  assigned-category: "F"

Lookup: // return assay outcome for `N=S(=O)(c1ccccc1)c1ccccc1`
Found: F

Lookup: Check `C/C(=N\NC(=S)N1CCC1)c1ccccn1` too.
Found: T

Lookup: Check C#CCCOC(=O)CC1=C(C)/C(=C/c2ccc([S+](C)[O-])cc2)c2ccc(F)cc21 (stereo not given) too.
Found: F

Lookup: Check `C/C(=N\c1ccc(Cl)cc1)c1ccncc1` too.
Found: F

Lookup: Check `Brc1c2nc3ccccc3nc2n2ccc3ccccc3c12` too.
Found: F

Lookup: Check [O-][S+]1CC[S+]([O-])CC[S+]([O-])CC1 (stereo not given) too.
Found: F

Lookup: Check COC1CC(O)C(OC(=O)c2ccccc2)C(C)O1 (stereo not given) too.
Found: F

Lookup: Check COc1ccc(OC)c(C2Cc3cnc4nc(N)nc(N)c4c3C2)c1 (stereo not given) too.
Found: F

Lookup: Check `COC(=O)c1nn(C(=N)c2ccc(Cl)cc2)c2c1CCC2` too.
Found: F

Lookup: Check Oc1ccccc1C(c1cc2c(cc1O)OCO2)N1CCOCC1 (stereo not given) too.
Found: F

Lookup: Check O=C(O)C12C3CCC(O3)C1(C(=O)O)C1CCC2O1 (stereo not given) too.
Found: F

Lookup: Check CNC(C)Cc1ccccc1OC (stereo not given) [METHOXYPHENAMINE HYDROCHLORIDE] too.
Found: F

Lookup: Check CCN1CCC(O)(c2ccccc2)C(C(=O)c2ccccc2)C1 (stereo not given) too.
Found: F

Lookup: Check `N#CC(=C1CCN(CCCC(=O)c2ccc(F)cc2)CC1)c1ccccc1` too.
Found: F

---

Test system: SNB-75
assay-details: NCI tumour cell line growth inhibition, 48 h
Structures can show the parent of a compound that is named as a salt. Calls of active or inactive are those of the source. No stated cut-off is given here; in the data, active = GI50 up to about 1.1 µM and inactive = higher.
measurement-kind: GI50

- compound: "COC1C=COC2(C)Oc3c(C)c(O)c4c(O)c(c(/C=N/N5CCN(N)CC5)c(O)c4c3C2=O)NC(=O)C(C)=CC=CC(C)C(O)C(C)C(O)C(C)C(OC(C)=O)C1C (stereo not drawn)"
  measured-target: "SNB-75"
  GI50: "34.7 µM (inactive)"
- compound: "CCCCCCCCCCCCCCCC(=O)OC(COC(C)=O)CO[PH](=O)O (stereo not drawn)"
  measured-target: "SNB-75"
  GI50: "22.4 µM (inactive)"
- compound: "CCN(CC)c1c(-c2c(OC(C)C)c(=O)c2=O)c(=O)n2ccsc2c1OC(C)=O"
  measured-target: "SNB-75"
  GI50: "5.13 µM (inactive)"
- compound: "CO[C@H](c1ccccc1)[C@H](O)[C@](O)(c1ccccc1)P(=O)(OC)OC"
  measured-target: "SNB-75"
  GI50: "> 100 µM (inactive)"
- compound: "CN1C[C@H](C(=O)N[C@]2(C)O[C@@]3(O)[C@@H]4CCCN4C(=O)[C@H](Cc4ccccc4)N3C2=O)C=C2c3cccc4[nH]cc(c34)C[C@H]21 [ERGOTAMINE TARTRATE]"
  measured-target: "SNB-75"
  GI50: "35.6 µM (inactive)"
- compound: "CC(C)(C)C(=O)/C=C/c1cccc(Oc2ccccc2)c1"
  measured-target: "SNB-75"
  GI50: "12.4 µM (inactive)"
- compound: "CC(CC(C#N)(c1ccccc1)c1ccccc1)N1CCCCC1 (stereo not drawn)"
  measured-target: "SNB-75"
  GI50: "29.7 µM (inactive)"

Lookup: Fill in: GI50 of `COc1ccccc1NC(=O)C1=C(C)NC(C)=C(C(=O)Nc2ccccc2OC)C1C1=CC=COC1` is ___
Found: 23 µM (inactive)
